study system: Signal peptidase I (Escherichia coli K-12) (UniProt P00803)
Sequence (P00803 whole entry): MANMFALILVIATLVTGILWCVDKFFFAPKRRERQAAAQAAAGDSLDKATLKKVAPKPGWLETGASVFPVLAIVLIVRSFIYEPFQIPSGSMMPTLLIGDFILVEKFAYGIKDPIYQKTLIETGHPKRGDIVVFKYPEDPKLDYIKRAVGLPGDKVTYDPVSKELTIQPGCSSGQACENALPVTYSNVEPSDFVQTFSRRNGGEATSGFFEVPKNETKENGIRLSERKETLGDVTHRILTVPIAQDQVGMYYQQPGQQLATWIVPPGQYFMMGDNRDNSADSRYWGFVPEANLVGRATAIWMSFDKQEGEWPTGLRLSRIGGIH
procedure text: Inhibition of Escherichia coli type 1 signal peptidase lepB assessed as residual activity at 0.0391 uM preincubated for 10 mins followed by Dabcyl-VGGTATAYGAFSRPGLE-(EDANS)-OH substrate addition measured after 2 hrs by FRET based assay (reference value: 100%)
Square brackets hold non-standard residues; d marks the D form. Peptide text beside a SMILES is read from it. * marks the point of attachment. Benzoyl(4-(4-hexylphenyl)) = CCCCCCc1ccc(-c2ccc(C(=O)*)cc2)cc1; boroAla = C[C@H](N*)B(O)O; Orn = NCCC[C@H](N)C(=O)O
Please respond with reported Activity for every item in the list.

# annotated cases, reported Activity shown
CCCCCCc1ccc(-c2ccc(C(=O)N[C@@H](Cc3cnc[nH]3)C(=O)N[C@H](C(=O)N[C@@H](C)C(=O)N[C@H]3Cc4cn(nn4)CCCN4C[C@@H]5OB(O[C@@H]5C4)[C@H](C)NC3=O)[C@@H](C)O)cc2)cc1 :: 76.7%
CCCCCCc1ccc(-n2cc(C(=O)N[C@@H](CCCN)C(=O)N[C@H](C(=O)N[C@@H](C)C(=O)N[C@H]3Cc4cn(nn4)CCO[C@@H]4C[C@@H]5OB(O[C@@H]5C4)[C@H](C)NC3=O)[C@@H](C)O)ccc2=O)cc1 :: 98.3%
CCCCCCc1ccc(-c2ccc(C(=O)N[C@@H](CCCNC(=N)N)C(=O)N[C@H](C(=O)N[C@@H](C)C(=O)N[C@H]3Cc4cn(nn4)CCCN4C[C@@H]5OB(O[C@@H]5C4)[C@H](C)NC3=O)[C@@H](C)O)cc2)cc1 :: 76.8%

Switching to the query record.
Need Activity, item CCCCCCc1ccc(-c2ccc(C(=O)N[C@@H](CCCN)C(=O)N[C@H](C(=O)N[C@@H](C)C(=O)N[C@@H](CC(N)=O)C(=O)N[C@@H](C)B(O)O)[C@@H](C)O)cc2)cc1 ({Benzoyl(4-(4-hexylphenyl))}-[Orn]TAN-boroAla)
57.5%

---

I'd appreciate it if you could supply Activity values for the items below.
study system: Signal peptidase I (Escherichia coli K-12) (UniProt P00803)
procedure text: Inhibition of Escherichia coli type 1 signal peptidase lepB assessed as residual activity at 0.0049 uM preincubated for 10 mins followed by Dabcyl-VGGTATAYGAFSRPGLE-(EDANS)-OH substrate addition measured after 2 hrs by FRET based assay (reference value: 100%)
Square brackets hold non-standard residues; d marks the D form. Peptide text beside a SMILES is read from it. * marks the point of attachment. Benzoyl(4-(4-hexylphenyl)) = CCCCCCc1ccc(-c2ccc(C(=O)*)cc2)cc1; X1 = C[C@H](N*)B1OC2C[C@@H]3C[C@@H](C3(C)C)[C@]2(C)O1; boroAla = C[C@H](N*)B(O)O; Orn = NCCC[C@H](N)C(=O)O
One number for each entry, in %.

Below is a list of molecules. For each, state its recorded Activity.
1. CCCCCCc1ccc(-c2ccc(C(=O)N[C@@H](CCCN)C(=O)N[C@H](C(=O)N[C@@H](C)C(=O)N[C@@H](CC(N)=O)C(=O)N[C@@H](C)B(O)O)[C@@H](C)O)cc2)cc1 ({Benzoyl(4-(4-hexylphenyl))}-[Orn]TAN-boroAla)
2. CCCCCCc1ccc(-c2ccc(C(=O)N[C@@H](CCCN)C(=O)N[C@H](C(=O)N[C@@H](C)C(=O)N[C@@H](CC(N)=O)C(=O)N[C@@H](C)B3OC4C[C@@H]5C[C@@H](C5(C)C)[C@]4(C)O3)[C@@H](C)O)cc2)cc1 (some centres not stated) ({Benzoyl(4-(4-hexylphenyl))}-[Orn]TAN-X1)

[93.9, 87.3]

Value source: ChEMBL document CHEMBL4270642
